- assayedTarget: KRas G12D (Homo sapiens, UniProt P01116, G12D);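 note: TR-FRET displacement binding assay on KRas, read after a one-hour incubation at room temperature, IC50 fitted from percent-of-control values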
- Sequence (P01116 1-169 isoform P01116-2 G12D): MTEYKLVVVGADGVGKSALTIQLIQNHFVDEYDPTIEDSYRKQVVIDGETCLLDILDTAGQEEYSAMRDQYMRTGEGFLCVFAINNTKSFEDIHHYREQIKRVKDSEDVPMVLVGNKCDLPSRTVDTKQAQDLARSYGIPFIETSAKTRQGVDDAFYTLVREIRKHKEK
- test: biochemical
Give measured IC50 for each item. Keep answers brief.
One number for each entry, in nM.

# count of solved cases: 3
O=c1cc(CNc2nc(OCC34CCCN3CCC4)nc3c(F)c(-c4cccc5cccc(F)c45)ncc23)[nH][nH]1 [Example 231]
97900
Fc1c(-c2cccc3cccc(F)c23)ncc2c(N3CCCC4(CCC(F)C4)C3)nc(OCC34CCCN3CCC4)nc12 (stereo not shown) [Example 48]
18400
NS(=O)(=O)CC1CCCN(c2nc(OCC34CCCN3CCC4)nc3c(F)c(-c4cccc5cccc(F)c45)ncc23)C1 (stereo not shown) [Example 221]
586

Could you tell me IC50 for each of these compounds? They are listed below.
1. CCc1c(F)ccc2cc(O)cc(-c3ncc4c(N5CCOCC6(C5)NC(=O)NC6=O)nc(OC[C@@]56CCCN5C[C@H](F)C6)nc4c3F)c12 (stereo partly shown) [Example 337]
2. CCc1c(F)ccc2cc(O)cc(-c3ncc4c(NCc5ccc6[nH]cnc6c5)nc(OC[C@@]56CCCN5C[C@H](F)C6)nc4c3F)c12 [Example 139]
3. CN(C)c1cc2n(n1)CCCN(c1nc(OCC34CCCN3CCC4)nc3c(F)c(-c4cccc5cccc(F)c45)ncc13)C2 [Example 264]
4. Fc1c(-c2cccc3cccc(F)c23)ncc2c(NCCc3cnoc3)nc(OCC34CCCN3CCC4)nc12 [Example 219]
5. NS(=O)(=O)CC1CCCN(c2nc(OCC34CCCN3CCC4)nc3c(F)c(-c4cccc5cccc(C(F)(F)F)c45)ncc23)C1 (stereo not shown) [Example 465]
6. CCc1c(F)ccc2cc(O)cc(-c3ncc4c(NCC5CS(=O)(=O)C5)nc(OC[C@@]56CCCN5C[C@H](F)C6)nc4c3F)c12 [Example 177]

Result:
1: 3; 2: 8; 3: 8160; 4: 65300; 5: 15600; 6: 3

Could you tell me IC50 for each of these compounds? They are listed below.
1. CCc1c(F)ccc2cc(O)cc(-c3ncc4c(NCC5CNS(=O)(=O)N5)nc(OC[C@@]56CCCN5C[C@H](F)C6)nc4c3F)c12 (stereo partly shown) [Example 494]
2. CS(=O)(=O)C1CCCCN(c2nc(OCC34CCCN3CCC4)nc3c(F)c(-c4cccc5cccc(F)c45)ncc23)C1 (stereo not shown) [Example 250]

Result:
1: 3; 2: 7310

* * *

Give measured pIC50 for each item. Keep answers brief.
- assayedTarget: KRas G12A (Homo sapiens, UniProt P01116, G12A)
- Sequence (P01116 1-169 isoform P01116-2 G12A): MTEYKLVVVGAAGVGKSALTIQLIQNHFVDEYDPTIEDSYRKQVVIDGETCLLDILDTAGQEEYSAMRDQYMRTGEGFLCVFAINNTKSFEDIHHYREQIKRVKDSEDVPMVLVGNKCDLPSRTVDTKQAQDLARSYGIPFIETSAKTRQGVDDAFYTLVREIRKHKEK
- test: biochemical
Answers are plain numbers, as −log10 of the molar value.

# count of solved cases: 3
Cc1cccc2cccc(-c3ncc4c(N5CCCC(c6nc[nH]n6)C5)nc(OCC56CCCN5CCC6)nc4c3F)c12 (stereo not shown) [Example 455]
5.22
Oc1cccc2c1CN(c1nc(OCC34CCCN3CCC4)nc3c(F)c(-c4cccc5cccc(F)c45)ncc13)C2 [Example 120]
4.48
OCc1n[nH]c(CNc2nc(OCC34CCCN3CCC4)nc3c(F)c(-c4cccc5cccc(Cl)c45)ncc23)n1 [Example 105]
5.17

Could you tell me pIC50 for each of these compounds? They are listed below.
1. Cc1cccc2cccc(-c3ncc4c(N5CCCC6(CNC(=O)N6)C5)nc(OCC56CCCN5CCC6)nc4c3F)c12 (stereo not shown) [Example 454]
2. O=C1CC(CNc2nc(OCC34CCCN3CCC4)nc3c(F)c(-c4cccc5cccc(Cl)c45)ncc23)CN1 (stereo not shown) [Example 102]

Result:
1. 6.75
2. 6.20

Ask: Please state recorded pIC50 (tested on KRas G12A (Homo sapiens, UniProt P01116, G12A)) of O=C1CC2(CCCN(c3nc(OCC45CCCN4CCC5)nc4c(F)c(-c5cccc6cccc(CCF)c56)ncc34)C2)N1 (stereo not shown) [Example 470];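 note: binding to KRas measured by TR-FRET displacement after one hour at room temperature, IC50 from a four-parameter fit of percent-of-control values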
Result: 6.46
